All values here come from patent US20260242478A1.

target: T1, Anti-CD28 Fab (SEQ ID NOs: 696, 697); assay: phage binding ELISA; clonal phage on plate-captured biotinylated anti-CD28 Fab, anti-M13 HRP detection
T1 construct: In the phage ELISA the Fab was biotinylated and captured on neutravidin coated plates
T1 sequence (VH, as listed by the source, chain 1 of 2): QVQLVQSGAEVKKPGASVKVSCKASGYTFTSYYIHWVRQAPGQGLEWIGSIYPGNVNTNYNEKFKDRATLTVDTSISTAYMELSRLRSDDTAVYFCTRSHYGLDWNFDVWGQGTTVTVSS
T1 sequence (VL, as listed by the source, chain 2 of 2): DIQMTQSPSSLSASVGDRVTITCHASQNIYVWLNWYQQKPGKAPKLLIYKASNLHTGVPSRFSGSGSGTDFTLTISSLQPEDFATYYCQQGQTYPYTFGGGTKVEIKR
Where no end group is shown, it is not given here.
Known Anti-CD28 Fab signal (phage binding ELISA) of a selection of binders
Format: numeric value only, no unit, no commentary.

Some entries whose results are on file:
Binder	Observed Result
YCAGHLDVYMSKCL (cysteine pairing not given here; also: displayed on phage by fusion to pIII, linker and pIII sequence not given here, Tested as clonal phage supernatant) [Phage-1230]	0.96
YCDGHSKEYMSKCL (cysteine pairing not given here; also: displayed on phage by fusion to pIII, linker and pIII sequence not given here, Tested as clonal phage supernatant) [Phage-1228]	0.96

Anti-CD28 Fab signal (phage binding ELISA) in this record for YCFGHFPEYMAKCL (cysteine pairing not given here; also: displayed on phage by fusion to pIII, linker and pIII sequence not given here, Tested as clonal phage supernatant) [Phage-1222] : 0.98

Anti-CD28 Fab signal (phage binding ELISA) in this record for YCAGHTPEYLDKCL (cysteine pairing not given here; also: displayed on phage by fusion to pIII, linker and pIII sequence not given here, Tested as clonal phage supernatant) [Phage-1231] : 0.95

Anti-CD28 Fab signal (phage binding ELISA) in this record for YCDGHLPEYMLKCL (cysteine pairing not given here; also: displayed on phage by fusion to pIII, linker and pIII sequence not given here, Tested as clonal phage supernatant) [Phage-1229] : 0.96

Anti-CD28 Fab signal (phage binding ELISA) in this record for YCAGHAAEYMWKCL (cysteine pairing not given here; also: displayed on phage by fusion to pIII, linker and pIII sequence not given here, Tested as clonal phage supernatant) [Phage-1225] : 0.97

Anti-CD28 Fab signal (phage binding ELISA) in this record for YCEGHDIRYMMKCL (cysteine pairing not given here; also: displayed on phage by fusion to pIII, linker and pIII sequence not given here, Tested as clonal phage supernatant) [Phage-1232] : 0.95

Anti-CD28 Fab signal (phage binding ELISA) in this record for YCEGHVPEYLVKCL (cysteine pairing not given here; also: displayed on phage by fusion to pIII, linker and pIII sequence not given here, Tested as clonal phage supernatant) [Phage-1227] : 0.96
